Data provenance is patent US20220119354A1.

test system: ryegrass, Italian (Lolium multiflorum); experiment: Test A postemergence, Italian ryegrass; type: in vivo; conditions: Lolium multiflorum, post-emergence, 240 h, 500 g ai/ha, 0 to 100 scale, 0 no effect, 100 complete control, read-out: Plant response rating, Ryegrass, Italian
Would you kindly list pest or weed control at 500 g/ha for each of these molecules?
Numbers only, in %.

C[C@@H](Nc1ncc(C(F)(F)F)c(N)n1)c1cc2cccc(F)c2o1 | 70
C[C@@H](Nc1ncc(C(F)(F)F)c(N)n1)c1cc2c(F)cccc2s1 | 90
C[C@@H](Nc1ncc(C(F)(F)F)c(N)n1)c1cc2cccc(F)c2s1 | 50

The molecule C[C@@H](Nc1ncc(C(F)(F)F)c(N)n1)c1cc2c(F)cccc2o1 , when measured on ryegrass, Italian (Lolium multiflorum), yielded pest or weed control at 500 g/ha of 100
